Each entry below carries its recorded IC50.
System: PC3 (prostate adenocarcinoma cell line)
Test: MTT cytotoxicity assay, PC3 cells
Type: cell-based
Conditions: Homo sapiens, PC-3, 48 h incubation, mean ± SD, triplicate

Recorded results for 2 molecules are shown here.
{"columns": ["MOLECULE", "SYSTEM NAME", "VALUE KIND", "OBSERVED VALUE"],
 "data": [
  ["CCOC(=O)C1=C(C)N=c2s/c(=C\\c3cccc(OC)c3O)c(=O)n2C1c1cccc([N+](=O)[O-])c1 (stereo not drawn)", "PC3 (prostate adenocarcinoma cell line)", "IC50", "> 100 µM"],
  ["CCOC(=O)C1=C(C)N=c2s/c(=C\\c3cccc(OC)c3O)c(=O)n2C1c1cccc(Br)c1 (stereo not drawn)", "PC3 (prostate adenocarcinoma cell line)", "IC50", "> 100 µM"]
]}

Moving on to another molecule below.
Memo: CCOC(=O)C1=C(C)N=c2s/c(=C\c3cccc(OC)c3O)c(=O)n2C1c1ccccc1 (stereo not drawn) , reported IC50: > 100 µM
